test: Cell viability assay (CellTiter-GLO) in HeLa cells; assay type: cell-based, human; conditions: human, 72 h, 24 nM to 100 μM, normalized to tamoxifen 60 μM and DMSO, read-out: half-maximal inhibitory potency (IC50), cytotoxicity
Kindly supply the reported pIC50 values for the records listed here.
One number for each entry, as −log10 of the molar value.

molecule: CCOC(=O)c1csc(CNC(=O)CC2=C(C3=N[C@@H](C)CC3)C(=O)NC23CC3)n1 [compound 23, reference compound]
pIC50: 5.08

Could you now look at the following molecule, please?
Inquiry: Hello, please tell me recorded pIC50 for this one: C[C@H]1CCC(CC(=O)NC2(C(=O)CC(=O)NCC(=O)c3csc(CCc4csc(CNC(=O)CC(=O)C5(NC(=O)CC6=N[C@@H](C)CC6)CC5)n4)n3)CC2)=N1
Reply text: 5.14
